# procedure text: in vivo
# setup conditions: female, C57BL/6J, mouse, ip, 50 mg/kg, Cmax in plasma, Mouse 1
quantity kind: Cmax (nM)
Give your result in nM as a bare value.

Lab book: Cmax of CCO[C@@H]1OC(=O)C[C@@H]1NC(=O)[C@@H]1CCCN1C(=O)[C@@H](NC(=O)c1ccc(N)c(Cl)c1)C(C)(C)C noted as 1540

* * *

# procedure text: in vivo
# setup conditions: female, C57BL/6J, mouse, ip, 50 mg/kg, Cmax in brain, Mouse 2
quantity kind: Cmax (nM)
Give your result in nM as a bare value.

Lab book: Cmax of CCO[C@@H]1OC(=O)C[C@@H]1NC(=O)[C@@H]1CCCN1C(=O)[C@@H](NC(=O)c1ccc(N)c(Cl)c1)C(C)(C)C noted as 90
